Field: IC50. Provide a value for each of the molecules that follow.
biological target: human P-TEFb (Homo sapiens, UniProt P50750); construct: endogenous in cells; assay: CTD kinase assay with immunoprecipitated human P-TEFb and Drosophila RNA polymerase II as substrate (FIG. 7B); conditions: immunoprecipitated human P-TEFb, 10 μM ATP; read-out: 50% inhibition point, CTD kinase assay
Sequence (P50750 whole entry): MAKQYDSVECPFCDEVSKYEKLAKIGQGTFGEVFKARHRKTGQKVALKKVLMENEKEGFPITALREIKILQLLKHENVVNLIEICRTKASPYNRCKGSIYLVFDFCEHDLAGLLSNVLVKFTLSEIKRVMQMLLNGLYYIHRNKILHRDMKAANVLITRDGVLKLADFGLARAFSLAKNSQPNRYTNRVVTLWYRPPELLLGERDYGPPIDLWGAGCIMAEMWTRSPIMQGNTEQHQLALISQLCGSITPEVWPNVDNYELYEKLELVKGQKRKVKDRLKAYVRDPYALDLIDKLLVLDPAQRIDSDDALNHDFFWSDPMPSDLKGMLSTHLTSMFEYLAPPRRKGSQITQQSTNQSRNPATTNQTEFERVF
Sequence (O60563 whole entry partner): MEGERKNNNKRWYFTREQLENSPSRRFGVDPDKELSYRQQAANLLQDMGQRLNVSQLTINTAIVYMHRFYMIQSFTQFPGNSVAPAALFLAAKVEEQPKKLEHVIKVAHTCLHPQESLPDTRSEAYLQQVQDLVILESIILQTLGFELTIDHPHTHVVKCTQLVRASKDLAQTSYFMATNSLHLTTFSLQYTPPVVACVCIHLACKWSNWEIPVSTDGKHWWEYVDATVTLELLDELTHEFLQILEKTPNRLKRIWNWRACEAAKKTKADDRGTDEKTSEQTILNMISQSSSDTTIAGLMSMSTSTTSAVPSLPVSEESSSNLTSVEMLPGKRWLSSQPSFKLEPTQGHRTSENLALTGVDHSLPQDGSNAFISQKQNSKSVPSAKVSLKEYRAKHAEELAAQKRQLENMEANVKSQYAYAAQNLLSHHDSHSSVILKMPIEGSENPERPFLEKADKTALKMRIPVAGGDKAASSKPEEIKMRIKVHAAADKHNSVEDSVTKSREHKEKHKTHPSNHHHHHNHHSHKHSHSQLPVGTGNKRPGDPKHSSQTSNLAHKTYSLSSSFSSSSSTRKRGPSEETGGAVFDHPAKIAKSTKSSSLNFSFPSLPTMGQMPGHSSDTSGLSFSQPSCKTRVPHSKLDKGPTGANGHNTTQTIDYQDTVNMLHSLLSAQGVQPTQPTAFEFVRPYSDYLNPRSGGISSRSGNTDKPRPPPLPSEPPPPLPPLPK
One number for each entry, in µM.

OC[C@H]1O[C@@H](n2cnc3cc(Cl)c(Cl)cc32)[C@H](O)[C@@H]1O
0.65

Problem: # lookup: IC50 of `CNCCNS(=O)(=O)c1cccc2cnccc12`
Result: 16

###

target: productive elongation (runoff transcripts) by RNA polymerase II in KcN; settings: read-out: 50% inhibition point of runoff transcription
readout type: IC50
The reply should consist of the numeric value with the unit placed after it.

OC[C@H]1O[C@@H](n2cnc3cc(Cl)c(Cl)cc32)[C@H](O)[C@@H]1O [DRB]
0.7 µM

Turning now to a further record.
Problem: # lookup: IC50 of CNCCNS(=O)(=O)c1cccc2cnccc12 [H-8]
Result: 7 µM

These entries and their values trace back to patent US7018836B1.
